# SYSTEM: Glucocorticoid receptor (Homo sapiens) (UniProt P04150)
# Sequence (P04150 whole entry, looked up): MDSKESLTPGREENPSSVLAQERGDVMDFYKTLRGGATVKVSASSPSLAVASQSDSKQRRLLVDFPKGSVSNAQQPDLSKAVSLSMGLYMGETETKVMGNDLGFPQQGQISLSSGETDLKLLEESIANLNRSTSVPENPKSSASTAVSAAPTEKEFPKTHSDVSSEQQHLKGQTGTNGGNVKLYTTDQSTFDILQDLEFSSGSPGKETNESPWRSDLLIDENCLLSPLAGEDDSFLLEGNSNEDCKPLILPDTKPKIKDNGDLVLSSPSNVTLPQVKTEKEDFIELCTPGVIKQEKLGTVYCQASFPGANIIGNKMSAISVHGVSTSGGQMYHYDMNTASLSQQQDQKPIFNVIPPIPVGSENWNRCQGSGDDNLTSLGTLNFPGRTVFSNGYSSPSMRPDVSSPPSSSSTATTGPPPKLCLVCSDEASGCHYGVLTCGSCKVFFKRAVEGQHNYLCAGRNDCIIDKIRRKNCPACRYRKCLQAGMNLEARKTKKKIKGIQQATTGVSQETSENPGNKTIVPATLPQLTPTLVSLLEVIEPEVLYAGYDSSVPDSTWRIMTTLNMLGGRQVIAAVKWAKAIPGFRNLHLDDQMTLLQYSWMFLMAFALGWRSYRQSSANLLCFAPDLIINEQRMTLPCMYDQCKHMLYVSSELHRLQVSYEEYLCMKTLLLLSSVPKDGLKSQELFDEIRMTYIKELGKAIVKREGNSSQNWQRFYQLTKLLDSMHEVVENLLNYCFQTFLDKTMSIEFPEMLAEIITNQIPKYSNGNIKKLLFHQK
# METHOD SUMMARY: GR-GFP Redistribution (AID 450); also: potency is read from the fitted curve at half-maximal effect
# STUDY CONDITIONS: U2OS GR-GFP nuclear translocation, laser cytometry, 2 h
Calls of active or inactive are those of the source.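 The calls were made as follows: active = compounds whose dose series gives a full or clear partial fitted curve of increased nuclear translocation; inconclusive = weak partial curve or effect only at the top dose; inactive = no dose-dependent translocation response.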
Output constraint: value belongs to T (active), F (inactive)

COc1cc2c(cc1O)CC[C@@H]1[C@@H]2CC[C@@]2(C)[C@H](O)CC[C@H]12 F
C[C@@]12C[C@H](O)[C@@H]3[C@H](CCC4=CC(=O)CC[C@]43C)[C@H]1CC[C@@H]2c1csc(N)n1 T
CS[C@]12C(=O)C[C@]3(C)[C@@H](CC[C@@]3(O)C(=O)CO)[C@@H]1CCC1=CC(=O)CC[C@]12C F
Cn1c(=O)c2c(nc(Cc3ccccc3)n2CC(=O)O)n(C)c1=O F
c1ccc(C[n+]2cccc(-c3cc4ccccc4[nH]3)c2)cc1 F
CN(CCc1ccccn1)c1ccc2c(c1)C(=O)c1ccccc1-2 F
O=C(O)c1c[nH]c2c(ccc3[nH]cc(C(=O)O)c(=O)c32)c1=O F
c1ccc(CCN2CCN=C2Cc2ccccc2)cc1 F
O=S(=O)(C[C@H](O)C(Cl)(Cl)Cl)NNc1ccccc1 F
O=C(O)[C@@H](O)Cc1ccccn1 F

In: Recorded call for c1ccc2nc(CC[C@@H]3CCCCN3)ccc2c1 ?
Out: F

In: Recorded call for N/C(CC/C(N)=N/O)=N\O ?
Out: F

In: Recorded call for Cc1ccc(S(=O)(=O)Nc2ccccc2C(=O)c2ccc(C)c(C)c2)cc1 ?
Out: F

====

# SYSTEM: Guanine nucleotide-binding protein G(i) subunit alpha-1 (Homo sapiens)
# METHOD SUMMARY: qHTS Assay for Inhibitors of RGS12 GoLoco Motif Activity (Green Fluorophore) (AID 879);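 also: 0% = labeled peptide with Gαi1 and full inhibition = labeled peptide alone without protein; negative values mean loss of peptide binding seen as reduced polarization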
# STUDY CONDITIONS: Galphai1/FITC-RGS12 GoLoco peptide, fluorescence polarization; series mostly up to 57.1 µM
Activity calls are given as the source filed them. Calls come from the whole dose curve; as a rule, active = well fitted curve in the direction sought with a large enough effect; inconclusive = small, poorly fitted or top-dose-only effect, or another doubt; inactive = no such curve, though single readings can be large or run the other way.
READOUT: outcome

COMPOUND	SYSTEM	outcome
CCCCCCCCCCCCCCC/C=C\[C@H](O)[C@@H](NC(=O)CCCCCCCCCCCCC)OC (tested in a mixture with another compound)	Guanine nucleotide-binding protein G(i) subunit alpha-1 (Homo sapiens)	inactive
Oc1ccc([C@@H]2CNCc3sccc32)cc1O	Guanine nucleotide-binding protein G(i) subunit alpha-1 (Homo sapiens)	inactive
O=C(O)CC[C@@H](NC(=O)c1ccccc1C(=O)O)C(=O)O	Guanine nucleotide-binding protein G(i) subunit alpha-1 (Homo sapiens)	inactive
C#C[C@H](N)CCC(=O)O	Guanine nucleotide-binding protein G(i) subunit alpha-1 (Homo sapiens)	inactive
O=C(O)/C=C\[C@H](O)c1ccc(Cl)cc1	Guanine nucleotide-binding protein G(i) subunit alpha-1 (Homo sapiens)	inactive

In: Request the reported outcome associated with N[C@@H]1C=CC=C(C(=O)O)C1
Out: inactive

====

# METHOD SUMMARY: NFAT Signaling Pathway (AID 444);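 also: carbachol stimulus at about its EC50 of 1 µM final; % is scaled to controls: 0 for no effect and ±100 for the full control effect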
# STUDY CONDITIONS: Jurkat NFAT-bla M1, carbachol, beta-lactamase ratio, 5 h; at 7.69 µM (top of the series) unless noted
Results filed as inconclusive are left out. Activity calls are given as the source filed them. Calls come from the whole dose curve; as a rule, active = well fitted curve in either direction with a large enough effect (not every such curve was filed as active); inconclusive = small, poorly fitted or top-dose-only effect, or another doubt; inactive = flat fitted curve, though single readings scatter.
Kindly state activity change, negative = inhibition for each of the entries shown.

For orientation, consider the following solved cases.
Cn1c(=O)c2[nH]c([C@@H]3CC(=O)C[C@H](c4nc5c([nH]4)c(=O)n(C)c(=O)n5C)N3)nc2n(C)c1=O 19% (inactive)
CC(C)c1ccc(/C=C2\C=C(c3ccc4ccccc4c3)OC2=O)cc1 -17% (inactive)
COc1cc2nc(N(C)CCCNC(=O)[C@@H]3CCCO3)nc(N)c2cc1OC -29.6% [at 17.2 µM] (inactive)
CC(=O)OCC(=O)[C@@]1(O)CC[C@@H]2[C@@H]3CCC4=CC(=O)CC[C@@]4(C)[C@H]3C(=O)C[C@]21C 5.8% [at 38 µM] (inactive)

Hi, could you look up activity change, negative = inhibition for each item in my list?
1. O=C(C[C@@H]1C=Cc2ccccc2N1C(=O)c1ccccc1)c1ccccc1
2. C#CCSc1n[nH]c(-c2ccco2)n1
3. CCN(CC(=O)O)C(=O)c1cccnc1

Out:
-22.9% (inactive)
15.4% (inactive)
5.05% (inactive)

Hi, could you look up activity change, negative = inhibition for each item in my list?
1. NS(=O)(=O)c1ccc(NCc2nc3ccccc3[nH]2)cc1
2. O=C(O)C/C(=C\c1ccccc1)C(=O)O
3. O=C(O)CCc1ccc(-c2ccccc2)[nH]1
4. Nc1c(OCC(=O)O)ccc2cc(S(=O)(=O)O)ccc12
5. O=C(O)c1ccccc1-c1ccccc1C(=O)Nc1ccc2c(c1)Cc1cc(F)ccc1-2
6. CN(C)CCSS(=O)(=O)O
7. O=S(=O)(C[C@H](O)C(Cl)(Cl)Cl)NNc1ccccc1

Out:
["8.2% (inactive)", "-2.46% (inactive)", "13.2% (inactive)", "-3.75% (inactive)", "-16.2% (inactive)", "5.08% (inactive)", "2.68% (inactive)"]

Hi, could you look up activity change, negative = inhibition for each item in my list?
1. O=C(CSC1=NCCN1)Nc1ccccc1
2. S=C1SCN(C2CCCCCCCCCCC2)CN1C1CCCCCCCCCCC1
3. NCCCc1ccc2oc3ccccc3c2c1
4. CCON=C1C(C)(C)C(C)(C)C(C)(C)C1(C)C

Out:
1: -6.05% (inactive); 2: 6.16% (inactive); 3: 14.4% (inactive); 4: 6.28% (inactive)

====

# SYSTEM: Cytochrome P450 1A2 (Homo sapiens) (UniProt P05177)
# Sequence (P05177 whole entry, looked up): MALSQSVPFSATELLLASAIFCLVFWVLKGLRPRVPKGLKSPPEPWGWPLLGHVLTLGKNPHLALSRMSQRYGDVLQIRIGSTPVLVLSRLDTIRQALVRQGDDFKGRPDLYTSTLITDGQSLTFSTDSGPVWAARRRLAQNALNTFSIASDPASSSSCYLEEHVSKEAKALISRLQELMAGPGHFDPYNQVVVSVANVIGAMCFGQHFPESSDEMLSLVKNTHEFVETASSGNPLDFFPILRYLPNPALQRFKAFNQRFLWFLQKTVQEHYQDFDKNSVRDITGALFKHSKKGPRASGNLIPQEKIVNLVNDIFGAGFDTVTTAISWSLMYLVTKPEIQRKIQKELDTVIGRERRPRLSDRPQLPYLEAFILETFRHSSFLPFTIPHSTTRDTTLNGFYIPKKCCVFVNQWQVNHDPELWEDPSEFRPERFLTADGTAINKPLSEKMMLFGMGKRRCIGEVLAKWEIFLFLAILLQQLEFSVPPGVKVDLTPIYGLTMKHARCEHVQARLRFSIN
# METHOD SUMMARY: p450-cyp1a2 (AID 410)
# STUDY CONDITIONS: recombinant CYP1A2, luciferin-ME demethylation, luminescence; series mostly up to 11.4 µM
Records with an inconclusive call do not appear. The source made the active and inactive calls. Calls come from the whole dose curve.
Output constraint: value belongs to true (active), false (inactive)

MOLECULE	ASSIGNED LABEL
C=CC[C@@H](C(=O)O)c1ccccc1	false

In: Recorded call for CC(C)Cn1cnc2c(SCc3ccc(Cl)cc3Cl)nc(N)nc21 ?
Out: true

In: Recorded call for CN(C)CCN(c1ccccn1)c1ccccn1 ?
Out: false

In: Recorded call for c1ccc2c(c1)nnn2CN1CCOCC1 ?
Out: false

In: Recorded call for N=C(N)SCc1cc(Cl)cc(Cl)c1O ?
Out: true

In: Recorded call for Cc1nnc(SCC2=C(C(=O)O)N3C(=O)[C@@H](NC(=O)Cn4cnnn4)[C@@H]3SC2)s1 ?
Out: false

In: Recorded call for c1cncc(CNc2ncn[nH]2)c1 ?
Out: false

In: Recorded call for Nc1ncnc2c1ncn2[C@H]1O[C@@H](C(=O)O)[C@@H](O)[C@H]1O ?
Out: false

In: Recorded call for Nc1nc2c(nc(Br)n2[C@@H]2O[C@H]3COP(=O)(O)O[C@@H]3[C@H]2O)c(=O)[nH]1 ?
Out: false

In: Recorded call for C=CCN1CCc2c(cc(O)c(O)c2Cl)[C@H](c2ccccc2)C1 ?
Out: true

In: Recorded call for CC[C@H](CN(C)C)C(=O)c1ccco1 ?
Out: false

In: Recorded call for COc1ccccc1-c1ccc2ncnc(NCc3cccnc3)c2c1 ?
Out: true

In: Recorded call for O=C(O)C[C@H](Cc1ccccc1)C(=O)O ?
Out: false

In: Recorded call for O=C(O)/C=C\[C@H](O)c1ccc(Cl)cc1 ?
Out: false

In: Recorded call for O=C(O)c1ccccc1-c1ccccc1C(=O)Nc1ccc2c(c1)Cc1cc(F)ccc1-2 ?
Out: true

In: Recorded call for O=C(O)c1cccc(SSc2cccc(C(=O)O)c2)c1 ?
Out: true

In: Recorded call for COc1ccc([C@H](O)c2ccccn2)cc1 ?
Out: false

In: Recorded call for CN(C)CCNS(=O)(=O)N(C)C ?
Out: false

====

# SYSTEM: Glucocorticoid receptor (Homo sapiens)
# METHOD SUMMARY: GR-EFC Redistribution (AID 451); also: potency is read from the fitted curve at half-maximal effect
# STUDY CONDITIONS: CHO-K1 GR-EFC translocation, beta-gal luminescence, 2 h
Active and inactive are the calls of the source. Calls come from the whole dose curve.
Kindly state Potency for each of the entries shown.

For orientation, consider the following solved cases.
O=C(O)c1ccc(Nc2ccnc3cc(Cl)ccc23)cc1O > 9.22 µM (inactive)
Cc1nc2cccc([N+](=O)[O-])c2n1CCCN(C)C > 9.22 µM (inactive)
N[C@@H](C(=O)O)[C@H](O)C(=O)O > 46 µM (inactive)
CN(C)S(=O)(=O)c1nc(Cl)c2[nH]cnc2n1 > 9.22 µM (inactive)

Hi, could you look up Potency for each item in my list?
1. Nc1nc(Cl)nc2c1ncn2[C@@H]1O[C@@H](CO)[C@@H](O)[C@H]1O
2. CN[C@]1(C)[C@@H]2CC[C@@H](C2)C1(C)C
3. c1ccc(CNCCN2CCNCC2)nc1
4. Cc1cc(N=Cc2c(CO)cnc(C)c2O)c(N=Cc2c(CO)cnc(C)c2O)cc1C.[Zn]
5. CC(=O)Nc1ccc(Cc2ccc3[nH]c(=O)cc(C)c3c2)cc1
6. Cc1cc(Cc2cc(C)cc(C(C)(C)C)c2O)c(O)c(Cc2cc(C)cc(C(C)(C)C)c2O)c1

Out:
1: > 46 µM (inactive); 2: > 46 µM (inactive); 3: > 9.22 µM (inactive); 4: > 9.22 µM (inactive); 5: > 9.22 µM (inactive); 6: > 9.22 µM (inactive)

In: # returns recorded Potency (system: Glucocorticoid receptor (Homo sapiens)) for O[C@@H](COc1ccc(Cl)cc1Cl)CN1CCCC1
Out: > 9.22 µM (inactive)
